Every entry's value here was drawn from patent US20030153590A1.

method_notes: Solubility of nalmefene HCl in water as a function of pH
Type: physicochemical
measurement_context: aqueous buffer, pH 7.5, from diagram of log solubility of Table 5 vs pH, read-out: Matematically determined solubility in water
Counter-ions that a name gives are not always drawn.
measured_endpoint: solubility (mg/mL)
Numeric only. Scale: mg/mL

Data request, read-out solubility, for C=C1CC[C@@]2(O)[C@H]3Cc4ccc(O)c5c4[C@@]2(CCN3CC2CC2)[C@H]1O5 [Nalmefene HCl]
31.9

====

method_notes: In vitro permeation study, MDCK cell membranes
Type: in vitro ADME, canine
measurement_context: dog, pH 6.5, n = 4, read-out: Permeability factor (Papp ± SD)
measured_endpoint: Papp A→B at 180 min, 500 μM
# do not omit the unit; it follows the number

I would be grateful if you could share the reported Papp A→B at 180 min, 500 μM for `C=C1CC[C@@]2(O)[C@H]3Cc4ccc(O)c5c4[C@@]2(CCN3CC2CC2)[C@H]1O5` .
11.4 ×10⁻⁶ cm/s
